Values compiled from PubChem BioAssay AID686978.

Test: qHTS for Inhibitors of human tyrosyl-DNA phosphodiesterase 1 (TDP1): qHTS in cells in absence of CPT; further: nearly all actives have a fitted effect of over 55% in size
Conditions: DT40 Tdp1-/- hTDP1 cells, no CPT, ATP luminescence, 48 h
The whole screen tested about 420,000 compounds, of which about 64,000 (15%) were called active. Not shown: some 27% with an inconclusive outcome. The call rests on the fitted dose curve; in most records, active means well fitted inhibition curve with a large enough effect; inconclusive means small, poorly fitted or top-dose-only effect; inactive means flat fitted curve, though single readings scatter. A selection follows.
Possible outcomes: 1 for active, 0 for inactive

compound	category
CNc1cc(-c2c(OC)cccc2OC)ncn1	0
CC(C)(O)C1=C[N+](=O)CC=C1	0
c1ccc2c(Nc3ccncc3)nc(-c3ccoc3)nc2c1	1
CCCCc1nc(NCCN)c(C#N)c2c1CSC(C)(C)C2	1
Cc1nc(NCCN)c(C#N)c2c1COC(C)(C)C2	0
COc1ccc2[nH]cc(CCNc3ncnc4ccc(-c5ccc(C(=O)N(C)C)cc5)cc34)c2c1	1
COCCNC(=O)CN(Cc1ccco1)C(=O)CCC(=O)Nc1nccs1	0
COc1cccc(-c2cc(NCCc3c[nH]c4ccc(OC)cc34)ncn2)c1	1
CCCCc1nc(NCc2ccccc2)c(C#N)c2c1CCCC2	0
CN(C)c1ccc(/C=C/C=C/c2ccnc3ccccc23)cc1	1
CN(C)c1cc(N)c2ccccc2n1 (tested in a mixture with another compound)	0

---

Experiment: qHTS for Inhibitors of human tyrosyl-DNA phosphodiesterase 1 (TDP1): qHTS in cells in absence of CPT; further: nearly all actives have a fitted effect of over 55% in size
Conditions: DT40 Tdp1-/- hTDP1 cells, no CPT, ATP luminescence, 48 h
About 64,000 (15%) of roughly 420,000 compounds were called active. Inconclusive results (about 27%) are left out. Calls come from the whole dose curve; as a rule, active = well fitted inhibition curve with a large enough effect; inconclusive = small, poorly fitted or top-dose-only effect; inactive = flat fitted curve, though single readings scatter. Not all results are given here.
Possible outcomes: active, inactive

molecule	category
Cc1ccc(SCC(=O)N2CCN(c3ccc(F)cc3)CC2)cc1	inactive
COC(=O)c1ccc(C(=O)OC)c(NC(=S)N2CCN(c3ccc(F)cc3)CC2)c1	inactive
CSc1ncccc1C(=O)NCC(c1ccco1)N1CCCCC1 (stereo not drawn)	inactive
Cc1nc2ccc(NC(=O)C3CCCCC3)cc2s1	inactive
CC(=O)Nc1c(C)nn(-c2ccccc2)c1N1CCC(C(=O)Nc2cc(Cl)ccc2C)CC1	inactive
CC(NC(=O)c1cc(Sc2ccc(F)cc2F)nc2ccccc12)c1ccccc1 (stereo not drawn)	active
CCCN(C(=O)CSc1nnc(N)s1)c1c(N)n(Cc2ccccc2)c(=O)[nH]c1=O	inactive
CCCCC(=O)Nc1ccc2c(c1)OCCO2	inactive
CCc1ccccc1NC(=O)CN1CCN(C(=O)c2cc(C3CC3)nn2-c2ccccc2)CC1	active
COc1cccc(C(=O)N(Cc2cccc(Cl)c2)Cc2ccco2)c1	active
Cc1ccc(N2CCN(C3=NC(=O)/C(=C\c4cccs4)S3)CC2)cc1	inactive
CCc1ccccc1NC(=O)CN(C)C(=O)c1cc(C2CC2)nn1-c1ccccc1	inactive
Cc1sc2ncnc(N3CCC(C(=O)Nc4nc5ccc(Cl)cc5s4)CC3)c2c1C	active
CN(C)C(=O)c1ccc(-c2cncnc2NC2CCNCC2)cc1	inactive
C=CCOc1cccc(CNCc2cccnc2)c1	inactive
COC(=O)c1cccc(C(=O)N2CCCC(Nc3ccc4c(c3)OCCO4)C2)c1 (stereo not drawn)	inactive
CC(NC(=O)c1cc(=O)[nH]c2ccccc12)c1ccc(F)cc1F (stereo not drawn)	inactive
Cc1nc2nc[nH]n2c(=O)c1C/C=C/c1ccccc1	inactive
CC1(c2ccc3ccccc3c2)NC(=O)NC1=O (stereo not drawn)	inactive
COc1ccc(OCC(=O)OCC(=O)Nc2ccc(S(=O)(=O)N3CCCCC3)cc2)cc1	inactive
COc1ccc(S(=O)(=O)N2CCN(C(C)C(=O)Nc3ccc(C(C)C)cc3)CC2)cc1 (stereo not drawn)	active
CCCCSCCCNC(=O)C1CCC(CNS(=O)(=O)c2ccc(NC(C)=O)cc2)CC1 (stereo not drawn)	inactive
CC1CC(C)(C)CC2(C1)NC(=O)N(CC(=O)Nc1nccs1)C2=O (stereo not drawn)	inactive
CN(C(=O)COC(=O)c1nc(Cl)ccc1Cl)C1CCS(=O)(=O)C1 (stereo not drawn)	inactive
O=C(O)c1ccccc1N=N/C(=N/Nc1cc(S(=O)(=O)O)ccc1O)c1ccccc1	inactive
Cc1sc2ncnc(N3CCC(C(=O)NNC(=O)c4ccc(F)cc4)CC3)c2c1C	active
CS(=O)(=O)c1ccc2nc(NC(=O)C3C4C=CC(C4)C3C(=O)O)sc2c1 (stereo not drawn)	inactive
CCc1ccc(NC(=O)Cn2nnc(C(=O)NCc3ccc4c(c3)OCO4)c2N)cc1	inactive
Cc1ccc(N(CC(=O)NCC2CCCO2)C(=O)CNS(=O)(=O)c2ccc(Cl)cc2)cc1 (stereo not drawn)	inactive
CCC(CC)c1nnc(NS(=O)(=O)Cc2ccccc2)s1	inactive
Cn1c(=O)c2ccccc2n(CC(=O)Nc2ccc3c(c2)OCCO3)c1=O	active
CCc1ccc(NC(=O)Cn2ncn3c(cc4ccccc43)c2=O)cc1	inactive
Cc1ccc(C)c2[nH]c(=O)c(CCNC(=O)CC(C)C)cc12	inactive
COc1cccc(CNC(C)C(=O)Nc2ccc(S(=O)(=O)N3CCCC3)cc2)c1 (stereo not drawn)	inactive
CCc1ccc(NC(=O)Cn2c(=O)n(CCC(=O)NCc3ccc4c(c3)OCO4)c(=O)c3ccccc32)cc1	active
COc1cccc(NC(=O)CN(C)C(=O)c2cc(C3CC3)nn2-c2ccccc2)c1	inactive
CC(C)OCCCNC(=O)c1cc(Sc2ccc(F)cc2)nc2ccccc12	inactive
CC1CCc2sc(C(=O)NCC(c3ccco3)N3CCCCC3)cc2C1 (stereo not drawn)	active
O=C(NCCCN1CCOCC1)c1cc2c(s1)CCC2	inactive
Nc1nc(Br)c2ccccc2c1-c1ccc(F)cc1	inactive
CCn1c2ccccc2c2cc(NC(=O)CNC)ccc21	inactive
CC(=O)Nc1ccc(NC(=O)COc2ccccc2C(=O)Nc2cccc(Cl)c2Cl)cc1	inactive
Cc1ccc(CSCC2Nc3ccc(C(=O)N4CCN(c5ccc(F)cc5)CC4)cc3NC2=O)cc1 (stereo not drawn)	active

---

Assay: qHTS for Inhibitors of human tyrosyl-DNA phosphodiesterase 1 (TDP1): qHTS in cells in absence of CPT; further: nearly all actives have a fitted effect of over 55% in size
Details: DT40 Tdp1-/- hTDP1 cells, no CPT, ATP luminescence, 48 h
About 64,000 (15%) of roughly 420,000 compounds were called active. About 27% were inconclusive and are not listed. The call rests on the fitted dose curve; in most records, active means well fitted inhibition curve with a large enough effect; inconclusive means small, poorly fitted or top-dose-only effect; inactive means flat fitted curve, though single readings scatter. These entries were drawn from the full list.
Possible outcomes: yes for active, no for inactive

compound	category
O=C1c2ccccc2C(=O)N1CCc1nn[nH]n1	no
Cc1cccc(C)c1N1C(=O)CN(Cc2ccccc2)C1=S	no
O=C(C(=O)N1CCN(c2ccccc2)CC1)c1ccc2c(c1)OCO2	no
Cc1c(Cl)cccc1NC(=O)C1CCCN(c2ncnc3onc(C)c23)C1 (centres undefined)	yes
Cc1ccc(S(=O)(=O)N2CCN=C2SCc2c(F)cccc2Cl)cc1	yes
COc1cccc(/C=C/C(=O)OCC(=O)N2CCCc3ccccc32)c1	no
CCCCCC1CC(COc2ccccc2)OC1=O (centres undefined)	no
CCCN1CCN(CCCNC(=O)Cn2nc(CC)n3c(cc4occc43)c2=O)CC1	no
COc1cccc(N(C(=O)CNC(=O)c2ccco2)C(C(=O)NC2CCCCC2)c2cccnc2)c1 (centres undefined)	no
CN(C)C(=O)c1ccc2c(c1)C1C3CCC(C3)C1C(c1ccccc1)N2 (centres undefined)	yes
O=C(c1cn2ccccc2n1)N1CCc2c([nH]c3ccccc23)C1c1ccccn1 (centres undefined)	no
O=C(Cc1ccccc1)NNC(=O)C1CCN(c2ncccn2)CC1	no
CCOc1ccc(C(=O)Nc2ccc3nc4c(c(Nc5ccccc5OC)c3c2)CCCC4)cc1	yes
Cc1ccc(OCC(=O)Nc2ccc(-c3nc4ncccc4o3)cc2)cc1	no
c1ccc(C2c3[nH]c4ccccc4c3CCN2Cc2cccn2-c2cccnc2)nc1 (centres undefined)	yes
Cc1ccc(Cl)cc1NC(=O)C1CCCN(c2cnccn2)C1 (centres undefined)	no
O=C1C[C@@H]2c3c(cccc3CN1Cc1ccccc1)C[C@@H](O)[C@H]2O	no
CCCc1cc(=O)[nH]c(SCC(=O)N2C(C)CCCC2C)n1 (centres undefined)	no
Cc1ccc(SCC(=O)NC(=O)NCc2ccco2)c(C)c1	no
O=S(=O)(NCC1CC1)c1ccc(F)c(Cl)c1	no
CC(=O)c1cccc(NC(=O)CSc2nc3c(c(=O)[nH]2)CCC3)c1	no
COC(=O)C1(C)NC(c2ccc(F)cc2)C2C(=O)N(c3ccccc3)C(=O)C21 (centres undefined)	no
O=C(CCN1C(=O)C2CCCCC2C1=O)Nc1ccc(OC(F)F)cc1 (centres undefined)	no
CCOc1ccc(NC(=O)CSc2c3c(nc4ccccc24)CCCC3)cc1	yes
COc1ccc(C2C(=O)N(C3CCCCCC3)CC(=O)N2CCc2ccc(Cl)cc2)cc1OC (centres undefined)	yes
CCOc1ccc(C2c3[nH]c4ccccc4c3CCN2Cc2cccn2-c2ncccn2)cc1 (centres undefined)	yes
CN(C)c1ccc2c(=O)[nH][nH]c(=O)c2c1	no
CCCC(=O)C1CCN(Cc2ccccc2)CC1	no
CCOc1ccc(C(=O)NC2CCN(C(=O)Nc3ccccc3OC)CC2)cc1	no
Cc1ccc(C(=O)NNC(=O)c2cccs2)cc1	no
CCn1cc(C(=O)N2CC=C(c3ccccc3)CC2)c(=O)c2ccc(C)nc21	no
CSCCNC(=O)c1ccc2nc(Cc3ccccc3F)oc2c1	no
CCn1ccnc1CN(C)C(=O)c1ccc2nc(Cc3ccc(OC)cc3)oc2c1	no
O=C1C[C@H]2C=CCc3cccc(c32)CN1Cc1ccccc1	yes
CCOc1ccc(NC(=O)CSc2nncn2C)cc1	no
CCC(=O)Nc1ccc(C(=O)Nc2cc(C)on2)cc1	no
CO/N=C(\C(=O)N[C@@H]1C(=O)N2C(C(=O)O)=C(COC(C)=O)CS[C@H]12)c1csc(N)n1 (stereo in doubt)	no
Cc1ccccc1SCC(=O)OCC(=O)N1CC(=O)Nc2ccccc21	no
COc1cc(S(=O)(=O)Nc2ncn[nH]2)ccc1Cl	no
COc1cc(C(=O)N(Cc2ccc(C(C)C)cc2)C2CCS(=O)(=O)C2)cc(OC)c1OC (centres undefined)	no
CCc1ccc(CN(C)C(=O)CCc2nnc(-c3ccc(-c4ccccc4)cc3)o2)nc1	yes
CCOc1ccc(C2c3[nH]c4ccccc4c3CCN2Cc2cn(CC)nc2C)cc1 (centres undefined)	no
COc1ccc(C2C(=O)N(C3CCCCC3)CC(=O)N2Cc2ccccc2Cl)cc1OC (centres undefined)	no
COc1ccc(Cc2nc3ccc(C(=O)NCc4ccccc4Cl)cc3o2)cc1	yes
